test system: mechanical hyperalgesia in diabetic animals; assay: Streptozotocin diabetic neuropathy, mechanical hyperalgesia (Randall and Sellito); assay type: in vivo, rat; settings: Rattus norvegicus, ip; diabetic rats, i.p.; read-out: Mechanical hyperalgesia ED50 (95% confidence region)
Below: a set of entries, each annotated with reported ED50.
Use mg/kg as the unit, but write only the number.

### Prompt Fill blank: measured ED50 of the compound COc1cccc(C2(O)CCCCC2CN(C)C)c1 (stereo not shown) is ____.
### Response 9.2

### Prompt Fill blank: measured ED50 of the compound CN1CC[C@]23c4c5ccc(O)c4O[C@H]2[C@@H](O)C=C[C@H]3[C@H]1C5 [Morphine, reference compound] is ____.
### Response 3

### Prompt Fill blank: measured ED50 of the compound NCC1(CC(=O)O)CCCCC1 [Gabapentin, reference compound] is ____.
### Response 225

New cases:
### Prompt Fill blank: measured ED50 of the compound CC[C@@H](c1cccc(O)c1)[C@@H](C)CN(C)C is ____.
### Response 8.9

---

test system: tactile allodynia in Chung animals; assay: Chung model (spinal nerve ligature), tactile allodynia, electronic von Frey; format: in vivo; conditions: Rattus norvegicus, ip, 0.5 h; rats, i.p., 30 minutes after administration
Below: a set of entries, each annotated with reported ED50.
Use mg/kg as the unit, but write only the number.

### Prompt Fill blank: measured ED50 of the molecule CC[C@](O)(c1cccc(OC)c1)[C@H](C)CN(C)C (racemic) [Compound 1] is ____.
### Response 10.1

### Prompt Fill blank: measured ED50 of the molecule C[C@@H](CN(C)C)[C@](C)(O)c1cccc(O)c1 [Compound 6] is ____.
### Response 4.65

### Prompt Fill blank: measured ED50 of the molecule NCC1(CC(=O)O)CCCCC1 [Gabapentin, reference compound] is ____.
### Response 92.6

### Prompt Fill blank: measured ED50 of the molecule CN1CC[C@]23c4c5ccc(O)c4O[C@H]2[C@@H](O)C=C[C@H]3[C@H]1C5 [Morphine, reference compound] is ____.
### Response 4.6

### Prompt Fill blank: measured ED50 of the molecule CC[C@H](c1cccc(O)c1)[C@H](C)CN(C)C [Compound 10] is ____.
### Response 1.5

Okay, now this molecule:
### Prompt Fill blank: measured ED50 of the molecule CC[C@@H](c1cccc(O)c1)[C@@H](C)CN(C)C [Compound 9] is ____.
### Response 8.15

---

tested on: cold allodynia in Bennett animals; assay: Bennett model (chronic constriction injury), cold allodynia on 4° C. cold metal plate; format: in vivo, rat; settings: Rattus norvegicus, ip; rats
Below: a set of entries, each annotated with reported ED50.
Use mg/kg as the unit, but write only the number.

### Prompt Fill blank: measured ED50 of the compound CN1CC[C@]23c4c5ccc(O)c4O[C@H]2[C@@H](O)C=C[C@H]3[C@H]1C5 [Morphine, reference compound] is ____.
### Response 7.1

### Prompt Fill blank: measured ED50 of the compound CC[C@@H](c1cccc(O)c1)[C@@H](C)CN(C)C is ____.
### Response 13

### Prompt Fill blank: measured ED50 of the compound CC[C@@](O)(c1cccc(OC)c1)[C@@H](C)CN(C)C is ____.
### Response 26

### Prompt Fill blank: measured ED50 of the compound CC[C@](O)(c1cccc(OC)c1)[C@H](C)CN(C)C [Compound 3] is ____.
### Response 9.2

### Prompt Fill blank: measured ED50 of the compound C[C@@H](CN(C)C)[C@](C)(O)c1cccc(O)c1 is ____.
### Response 32.6

### Prompt Fill blank: measured ED50 of the compound C[C@H](CN(C)C)[C@@](C)(O)c1cccc(O)c1 [Compound 7] is ____.
### Response 11.1

### Prompt Fill blank: measured ED50 of the compound C[C@H](CN(C)C)[C@@](C)(O)c1cccc(O)c1 (racemic) [Compound 5] is ____.
### Response 15

### Prompt Fill blank: measured ED50 of the compound CC[C@H](c1cccc(O)c1)[C@H](C)CN(C)C is ____.
### Response 1.2

### Prompt Fill blank: measured ED50 of the compound CC(CN(C)C)=C(C)c1cccc(O)c1 is ____.
### Response 3.6

Okay, now this compound:
### Prompt Fill blank: measured ED50 of the compound CC[C@](O)(c1cccc(OC)c1)[C@H](C)CN(C)C (racemic) [Compound 1] is ____.
### Response 11.1

From: patent US20080269326A1
